Test system: HOP-18
Test: Anti-proliferative activity, HOP-18
Type: cell-based
Conditions: Homo sapiens, HOP-18, read-out: Anti-Proliferative activity IC50
Protocol: FIG. 8 is a graph depicting the mRNA levels of α-1 and α-3 isoforms quantitated by real time RT-PCR (TaqMan) using fluorescent labeled TaqMan probes. Anti-proliferation (IC50 values) activity of BNC4 on indicated cell lines was determined by MTS assay. Total alpha levels (al+a3) were plotted against (1/IC50) X100 values.
pIC50: −log10 of the molar value.
Each entry below carries its reported pIC50.
resultType: pIC50

INSERT INTO results (compound, datavalue) VALUES
  ('C[C@@H]1O[C@@H](O[C@@H]2C=C3CC[C@@H]4[C@H](CC[C@]5(C)[C@@H](c6ccc(=O)oc6)CC[C@]45O)[C@@]3(C)CC2)[C@H](O)[C@H](O)[C@H]1N [BP244]', 8.14),
  ('C[C@]12CC/C(=N\OCCN3CCCCC3)C=C1CC[C@@H]1[C@@H]2CC[C@]2(C)[C@@H](c3ccc(=O)oc3)CC[C@]12O [BP228]', 7.72);

====

Test system: Caki-1 (CAKI)
Experiment: cells
Type: cell-based
Settings: Homo sapiens, CAKI-1, read-out: APA (Caki-1) IC50
resultType: IC50 (nM)

INSERT INTO assay_data (compound, resulttype, datavalue) VALUES
  ('C[C@]12CC[C@H](OC(=O)C3CCNC3)C=C1CCC1C2CC[C@]2(C)[C@@H](c3ccc(=O)oc3)CC[C@]12O (some centres unmarked)', 'IC50', 112),
  ('CC12CCC(OC(=O)Nc3ccc(F)cc3)C=C1CCC1C2CCC2(C)C(c3ccc(=O)oc3)CCC12O (centres unmarked)', 'IC50', 142),
  ('CCCNC(=O)OC1C=C2CCC3C(CCC4(C)C(c5ccc(=O)oc5)CCC34O)C2(C)CC1 (centres unmarked)', 'IC50', 67),
  ('COC1O[C@@H]2C(=O)[C@H](C)OC(O[C@@H]3C=C4CCC5C(CC[C@]6(C)[C@@H](c7ccc(=O)oc7)CC[C@]56O)[C@@]4(C)CC3)[C@@H]2O1 (some centres unmarked)', 'IC50', 26),
  ('CCON=C1C=C2CCC3C(CCC4(C)C(c5ccc(=O)oc5)CCC34O)C2(C)CC1 (centres unmarked)', 'IC50', 19),
  ('CC(=O)N1CCC(C(=O)O[C@@H]2C=C3CCC4C(CC[C@]5(C)[C@@H](c6ccc(=O)oc6)CC[C@]45O)[C@@]3(C)CC2)CC1 (some centres unmarked)', 'IC50', 342),
  ('C[C@]12CCC(N)C=C1CCC1C2CC[C@]2(C)[C@@H](c3ccc(=O)oc3)CC[C@]12O (some centres unmarked)', 'IC50', 72),
  ('CCCCNC(=O)OC1C=C2CCC3C(CCC4(C)C(c5ccc(=O)oc5)CCC34O)C2(C)CC1 (centres unmarked)', 'IC50', 46);

====

Assay: Pharmacokinetics following IP administration in mice
Type: in vivo
Settings: mouse, plasma, ip, 5 mg/kg, read-out: t1/2 (terminal elimination half-life) (converted)
Each entry below carries its reported half-life.
resultType: half-life (min)

INSERT INTO results (molecule, resulttype, resultunits, datavalue) VALUES
  ('C[C@]12CC/C(=N\OCCN3CCCCC3)C=C1CC[C@@H]1[C@@H]2CC[C@]2(C)[C@@H](c3ccc(=O)oc3)CC[C@]12O [BP228]', 'half-life', 'min', 114),
  ('C[C@@H]1O[C@@H](O[C@@H]2C=C3CC[C@@H]4[C@H](CC[C@]5(C)[C@@H](c6ccc(=O)oc6)CC[C@]45O)[C@@]3(C)CC2)[C@H](O)[C@H](O)[C@H]1N [BP244]', 'half-life', 'min', 270),
  ('C[C@@H]1O[C@@H](O[C@@H]2C=C3CC[C@@H]4[C@H](CC[C@]5(C)[C@@H](c6ccc(=O)oc6)CC[C@]45O)[C@@]3(C)CC2)[C@H](O)[C@H](O)[C@H]1O [BNC4, proscillaridin, reference compound]', 'half-life', 'min', 48);

====

System: 786-O
Assay: Anti-proliferative activity, 786-O
Format: cell-based
Details: Homo sapiens, 786-0, read-out: Anti-Proliferative activity IC50
pIC50: −log10 of the molar value.
Each entry below carries its reported pIC50.
resultType: pIC50

INSERT INTO results (entrysmiles, datavalue) VALUES
  ('C[C@]12CC/C(=N\OCCN3CCCCC3)C=C1CC[C@@H]1[C@@H]2CC[C@]2(C)[C@@H](c3ccc(=O)oc3)CC[C@]12O', 8.05),
  ('C[C@@H]1O[C@@H](O[C@@H]2C=C3CC[C@@H]4[C@H](CC[C@]5(C)[C@@H](c6ccc(=O)oc6)CC[C@]45O)[C@@]3(C)CC2)[C@H](O)[C@H](O)[C@H]1N', 8.10);

====

Molecular target: Na-K-ATPase
Assay: Na-K-ATPase enzyme assay (inorganic phosphate liberated from ATP), pig brain
Format: biochemical
Conditions: pig brain; FIG. 9; read-out: IC50, Na-K-ATPase
resultType: IC50

INSERT INTO measurements (entrysmiles, datavalue) VALUES
  ('C[C@@H]1O[C@@H](O[C@@H]2C=C3CC[C@@H]4[C@H](CC[C@]5(C)[C@@H](c6ccc(=O)oc6)CC[C@]45O)[C@@]3(C)CC2)[C@H](O)[C@H](O)[C@H]1N', '98 µM');

====

Test: Pharmacokinetics following IP administration in mice
Assay type: in vivo
Conditions: mouse, plasma, ip, 2.5 mg/kg, i.p., 2.5 mg/kg, read-out: tmax
resultType: Tmax

INSERT INTO results (compound, resulttype, datavalue) VALUES
  ('C[C@]12CC/C(=N\OCCN3CCCCC3)C=C1CC[C@@H]1[C@@H]2CC[C@]2(C)[C@@H](c3ccc(=O)oc3)CC[C@]12O [BP228]', 'Tmax', '10 min');

====

Target: Na-K-ATPase
Test: Na-K-ATPase enzyme assay (inorganic phosphate liberated from ATP), pig brain
Type: biochemical
Details: Pig brain; read-out: ATPase Inh, IC50 Pig brain
Mark 1 for IC50 under 0.2 µM, 0 if at or over.

INSERT INTO assay_data (compound, experimentaltarget, classassignment) VALUES
  ('CC12CCC(OC(=O)Nc3ccc(F)cc3)C=C1CCC1C2CCC2(C)C(c3ccc(=O)oc3)CCC12O (centres unmarked)', 'Na-K-ATPase', 0),
  ('C[C@@H]1OC(O[C@@H]2C=C3CCC4C(CC[C@]5(C)[C@@H](c6ccc(=O)oc6)CC[C@]45O)[C@@]3(C)CC2)[C@H](O)[C@H](O)[C@H]1N (some centres unmarked)', 'Na-K-ATPase', 0),
  ('CC(=O)N1CCC(C(=O)O[C@@H]2C=C3CCC4C(CC[C@]5(C)[C@@H](c6ccc(=O)oc6)CC[C@]45O)[C@@]3(C)CC2)CC1 (some centres unmarked)', 'Na-K-ATPase', 0),
  ('C[C@@H]1CC(O[C@@H]2C=C3CCC4C(CC[C@]5(C)[C@@H](c6ccc(=O)oc6)CC[C@]45O)[C@@]3(C)CC2)[C@H](O)[C@H](O)[C@@H]1O (some centres unmarked)', 'Na-K-ATPase', 1);

====

Test system: Caki-1 (CAKI)
Assay: cells
Format: cell-based
Conditions: Homo sapiens, CAKI-1, read-out: APA (Caki-1) IC50
pIC50: −log10 of the molar value.
I would appreciate it if you labelled entries Condition met when pIC50 is 7 or higher, otherwise Condition not met.

INSERT INTO results (compound, classassignment) VALUES
  ('CN(C)CCON=C1C=C2CCC3C(CCC4(C)C(c5ccc(=O)oc5)CCC34O)C2(C)CC1 (stereo not shown)', 'Condition met'),
  ('CC(C)(C)NC(=O)OC1C=C2CCC3C(CCC4(C)C(c5ccc(=O)oc5)CCC34O)C2(C)CC1 (stereo not shown)', 'Condition not met'),
  ('CC12CCC(=NOCCN3CCCCC3)C=C1CCC1C2CCC2(C)C(c3ccc(=O)oc3)CCC12O (stereo not shown)', 'Condition met'),
  ('C[C@]12CCC(NCCN3CCOCC3)CC1CCC1C2CC[C@]2(C)[C@@H](c3ccc(=O)oc3)CC[C@]12O (stereo partly shown)', 'Condition not met'),
  ('C[C@@H]1CC(O[C@@H]2C=C3CCC4C(CC[C@]5(C)[C@@H](c6ccc(=O)oc6)CC[C@]45O)[C@@]3(C)CC2)[C@H](O)[C@H](O)[C@@H]1O (stereo partly shown)', 'Condition met'),
  ('C[C@@H]1OC(O[C@@H]2C=C3CCC4C(CC[C@]5(C)[C@@H](c6ccc(=O)oc6)CC[C@]45O)[C@@]3(C)CC2)[C@H](O)[C@H](O)[C@H]1N (stereo partly shown)', 'Condition met'),
  ('COC1O[C@@H]2[C@@H](N)[C@H](C)OC(C[C@@H]3C=C4CCC5C(CC[C@]6(C)[C@@H](c7ccc(=O)oc7)CC[C@]56O)[C@@]4(C)CC3)[C@@H]2O1 (stereo partly shown)', 'Condition met'),
  ('C=CCON=C1C=C2CCC3C(CCC4(C)C(c5ccc(=O)oc5)CCC34O)C2(C)CC1 (stereo not shown)', 'Condition met');

Where do these numbers come from? They come from patent US20090023666A1.
